- TEST TARGET: T1, SARS-CoV-2 spike receptor binding domain (RBD) (SARS-CoV-2, UniProt P0DTC2 319-541)
- T1 construct: also called SARS-CoV-2 RBD
- TEST DETAILS: ELISA

BINDER	binding result
FG 12C (antibody, V domains shown) VH: EVQLVESGGGLVQPGRSLRLSCAASGFTFDDYAMHWVRQAPGKGLEWVSGISWNSGSIGYADSVKGRFTISRDNAKNSLYLQMNSLRAEDTALYYCAKDMRVHDYGDYYFDYWGQGTLVTVSS VL: SYELTQPPSVSVAPGKTARITCGGNNIGSKSVHWYQQKPGQAPVLVIYYDSDRPSGIPERFSGSNSGNTATLTISRVEAGDEADYYCQVWDSSSDHPVFGGGTKLTVL	no binding
FD 1D (antibody, V domains shown) VH: EVQLVESGGGVVQPGRSLRLSCAASGFTFSSYAMHWVRQAPGKGLEWVAVISYDGSNKYYADSVKGRFTISRDNSKNTLYLQMNSLRAEDTAVYYCARAGSGSYLNWFDPWGQGTLVTVSS VL: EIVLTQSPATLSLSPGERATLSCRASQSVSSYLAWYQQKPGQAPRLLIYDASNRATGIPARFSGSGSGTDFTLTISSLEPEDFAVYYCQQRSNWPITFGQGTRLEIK	no binding
EW 9C-1 (antibody, V domains shown) VH: EVQLVESGGGVVQPGASLRLSCVASGFTFNNFGFHWVRQAPGKGLEWLAVISYEGSKTYYAESLKGRFTISRDTSKNTVYLQMNSLRAEDTAVYYCARATSIFWFGEGRNWFDPWGQGALVTVSS VL: EIVMTQSPGTVSLSAGERATLSCRASQNVGTDLAWYVQRPGQAPRLLIYDTSNRATGIPARFSGRGSGTDFTLTIDSLEPEDFAVYYCQQRSNWPLTFGGGTKVEIK	no binding
